# Kd per record follows
TESTED SYSTEM: T1, Engineered human orexin receptor 2 (OX2R) truncated after R389, ICL3 residues V261-A291 deleted, with an … (human, UniProt O43614 1-389, residues V261–A291 deleted, biotin on the Avi-tag (BirA biotin-protein ligase))
T1 construct: Orexin receptor type 2 (OX2R), human, truncated after residue R389, part of ICL3 (residues V261-A291) deleted; M1 is said to be present in the construct; Detergent-solubilised receptor (DDM/CHS); The PDB entries hold the construct without the Avi-tag; also called engineered OX2R; orexin receptor type 2; source: biotinylated with BirA; not shown: Avi-tag, N-terminal, kept
T1 sequence (looked up): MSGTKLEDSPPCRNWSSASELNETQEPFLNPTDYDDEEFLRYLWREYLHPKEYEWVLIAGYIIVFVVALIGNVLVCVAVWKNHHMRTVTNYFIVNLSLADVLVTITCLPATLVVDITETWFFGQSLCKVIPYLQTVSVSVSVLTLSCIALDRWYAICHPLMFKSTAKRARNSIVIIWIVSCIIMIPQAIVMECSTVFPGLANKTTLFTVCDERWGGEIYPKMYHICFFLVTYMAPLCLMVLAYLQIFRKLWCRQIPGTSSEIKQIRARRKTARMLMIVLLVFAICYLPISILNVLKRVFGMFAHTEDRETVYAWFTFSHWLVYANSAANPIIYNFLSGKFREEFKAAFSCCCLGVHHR
ASSAY: grating-coupled interferometry; WAVE system (Creoptix); agonist-bound OX2R immobilised via the biotinylated Avi-tag on a neutravidin-coated WAVEchip 4PCP; nanobody as analyte
PARTICULARS: both partners purified
Kindly provide the numeric value in nM only, without the unit symbol.

# example entries with known answers
Give a short answer stating reported Kd for Synthetic nanobody clone 15 (VHH, synthetic nanobody selected from the libraries of Zimmermann and coworkers by ribosome display and phage display; Host, tags and purification are told only for Sb51 (clone 51); also called Clone No. 15) VHH: QVQLVESGGGLVQAGGSLRLSCAASGFPVKQREMAWYRQAPGKEREWVAAIWSKGAHTVYADSVKGRFTISRDNAKNTVYLQMNSLKPEDTAVYYCNVKDFGWWNRQYDYWGQGTQVTVS .
300

Hello, please tell me recorded Kd for this one: Synthetic nanobody clone 46 (VHH, synthetic nanobody selected from the libraries of Zimmermann and coworkers by ribosome display and phage display; Host, tags and purification are told only for Sb51 (clone 51); also called Clone No. 46) VHH: QVQLVESGGGLVQAGGSLRLSCAASGFPVDAYVMYWYRQAPGKEREWVAAIASQGHPTAYADSVKGRFTISRDNAKNTVYLQMNSLKPEDTAVYYCEVYVGYFYHGQGTRVTVS
4.2

Quote Kd reported for Synthetic nanobody clone 44 (VHH, synthetic nanobody selected from the libraries of Zimmermann and coworkers by ribosome display and phage display; Host, tags and purification are told only for Sb51 (clone 51); also called Clone No. 44) VHH: QVQLVESGGGLVQAGGSLRLSCAASGFPVDTYTMYWYRQAPGKEREWVAAINSNGHHTAYADSVKGRFTISRDNAKNTVYLQMNSLKPEDTAVYYCEVYVGWWYYGQGTQVTVS please.
7.7

Output measured Kd for this item: Synthetic nanobody clone 55 (VHH, synthetic nanobody selected from the libraries of Zimmermann and coworkers by ribosome display and phage display; Host, tags and purification are told only for Sb51 (clone 51); also called Clone No. 55) VHH: QVQLVESGGGLVQAGGSLRLSCAASGFPVQSHTMYWYRQAPGKEREWVAAINSTGQGTAYADSVKGRFTISRDNAKNTVYLQMNSLKPEDTAVYYCEVYVGYFYHGQGTQVTVS
7.3

Write down Kd measured for item Synthetic nanobody clone 45 (VHH, synthetic nanobody selected from the libraries of Zimmermann and coworkers by ribosome display and phage display; Host, tags and purification are told only for Sb51 (clone 51); also called Clone No. 45) VHH: QVQLVESGGGLVQAGGSLRLSCAASGFPVYTYTMYWYRQAPGKEREWVAAITSEGISTAYADSVKGRFTISRDNAKNTVYLQMNSLKPEDTAVYYCEVYVGYFYHGQGTQVTVS
11

In the following, a different binder is considered.
Hello, please tell me recorded Kd for this one: Synthetic nanobody clone 7 (VHH, synthetic nanobody selected from the libraries of Zimmermann and coworkers by ribosome display and phage display; Host, tags and purification are told only for Sb51 (clone 51: E. coli C41(DE3), MBP fusion cleaved by TEV); also called Clone No. 7) VHH: QVQLVESGGGLVQAGGSLRLSCAASGFPVLRQEMFWYRQAPGKEREWVAAIWSKGSTTEYADSVKGRFTISRDNAKNTVYLQMNSLKPEDTAVYYCNVKDYGWWNNWYDYWGQGTQVTVS
11

These data points were gathered from paper PMC7864924.
